For each record, write down the corresponding EC50.
Target: Hco-ACC-2 W248Y (Haemonchus contortus, UniProt A0A219KWM7, W248Y)
Sequence (A0A219KWM7 18-443 W248Y): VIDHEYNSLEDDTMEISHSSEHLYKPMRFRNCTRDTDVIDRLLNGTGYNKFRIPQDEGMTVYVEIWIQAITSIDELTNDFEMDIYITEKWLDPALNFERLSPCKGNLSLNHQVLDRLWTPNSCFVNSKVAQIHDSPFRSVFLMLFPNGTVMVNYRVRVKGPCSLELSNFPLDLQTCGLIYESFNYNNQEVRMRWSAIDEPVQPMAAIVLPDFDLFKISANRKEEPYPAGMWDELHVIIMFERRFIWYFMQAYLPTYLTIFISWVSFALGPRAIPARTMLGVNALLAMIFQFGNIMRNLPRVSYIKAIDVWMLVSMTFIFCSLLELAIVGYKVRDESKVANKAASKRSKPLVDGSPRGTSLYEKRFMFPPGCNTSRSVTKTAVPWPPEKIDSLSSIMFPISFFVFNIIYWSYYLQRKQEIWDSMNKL
Experiment: Two-electrode voltage clamp of Hco-ACC-2 W248Y mutant in Xenopus laevis oocytes
Structures can show the parent of a compound that is named as a salt.

EC50 for CC(C[N+](C)(C)C)OC(N)=O (stereo not drawn) [Urecholine, Carbamyl-β-methylcholine chloride] ?
> 1 mM

Repeat for the following molecule: CN1CCCN=C1/C=C/c1cccs1 [Pyrantel, Pyrantel Citrate Salt]
> 1 mM

Repeat for the following molecule: CC(=O)OC(C)C[N+](C)(C)C (stereo not drawn) [Methacholine, Acetyl-β-methylcholine Chloride]
> 1 mM

Repeat for the following molecule: c1ccc([C@H]2CN3CCSC3=N2)cc1 [Levamisole, Levamisole Hydrochloride]
> 1 mM

Repeat for the following molecule: C[N+](C)(C)CCO [Choline, Choline Chloride]
> 1 mM

Repeat for the following molecule: C[N+](C)(C)CCOC(N)=O [Carbachol, Carbamoylcholine Chloride]
> 1 mM
